Let's go through some pIC50 measurements on SARS-CoV 3CLpro (Severe acute respiratory syndrome coronavirus, UniProt P0C6X7) together.
Note on pIC50: it is the negative log10 of concentration, concentration in mol/L.

Here's what some known entries look like.
[
  {
    "compound": "CCC(CC)[C@H](NC(=O)C(F)F)C(=O)N1C[C@@H]2CCC[C@@H]2[C@H]1C(=O)NN(C[C@@H]1CCCNC1=O)C(=O)[C@H](F)Cl",
    "subject.of.test": "SARS-CoV 3CLpro (Severe acute respiratory syndrome coronavirus, UniProt P0C6X7)",
    "pIC50": 7.92
  },
  {
    "compound": "CC(C)(C)[C@H](NC(=O)C(F)(F)F)C(=O)N1C[C@H]2[C@@H]([C@H]1C(=O)NN(CCC(N)=O)C(=O)[C@H](F)Cl)C2(C)C",
    "subject.of.test": "SARS-CoV 3CLpro (Severe acute respiratory syndrome coronavirus, UniProt P0C6X7)",
    "pIC50": 8.03
  },
  {
    "compound": "CC(C)(C)[C@H](NC(=O)C1CC1)C(=O)N1C[C@H]2[C@@H]([C@H]1C(=O)NN(C[C@@H]1CCNC1=O)C(=O)[C@H](F)Cl)C2(C)C",
    "subject.of.test": "SARS-CoV 3CLpro (Severe acute respiratory syndrome coronavirus, UniProt P0C6X7)",
    "pIC50": 7.77
  },
  {
    "compound": "CCC(CC)[C@H](NC(=O)C(C)F)C(=O)N1CC(C)(C)C[C@H]1C(=O)NN(C[C@@H]1CCNC1=O)C(=O)[C@H](F)Cl (mixture of isomers)",
    "subject.of.test": "SARS-CoV 3CLpro (Severe acute respiratory syndrome coronavirus, UniProt P0C6X7)",
    "pIC50": 7.57
  },
  {
    "compound": "CCC(C)[C@H](NC(=O)C1(F)CCC1)C(=O)N1C[C@@H]2CCC[C@@H]2[C@H]1C(=O)NN(C[C@@H]1CCNC1=O)C(=O)[C@H](F)Cl (stereo in doubt)",
    "subject.of.test": "SARS-CoV 3CLpro (Severe acute respiratory syndrome coronavirus, UniProt P0C6X7)",
    "pIC50": 7.92
  },
  {
    "compound": "CC(C)(C)[C@H](NC(=O)C1CC1(F)F)C(=O)N1C[C@@H]2CCC[C@@H]2[C@H]1C(=O)NN(C[C@@H]1CCNC1=O)C(=O)[C@H](F)Cl (mixture of isomers)",
    "subject.of.test": "SARS-CoV 3CLpro (Severe acute respiratory syndrome coronavirus, UniProt P0C6X7)",
    "pIC50": 7.92
  }
]

Respond only with pIC50 recorded for CC[C@H](C)[C@H](NC(=O)C(C)(F)F)C(=O)N1C[C@@H]2CCC[C@@H]2[C@H]1C(=O)NN(C[C@@H]1CCNC1=O)C(=O)[C@H](F)Cl 7.89

Please give the documented pIC50 of CC(C)(C)[C@H](NC(=O)C(F)(F)F)C(=O)N1C[C@H]2[C@@H]([C@H]1C(=O)NN(C[C@@H]1CCNC1=O)C(=O)CCl)C2(C)C 6.37

Retrieve pIC50 measured for CCC(C)(C)[C@H](NC(=O)C1CC1)C(=O)N1C[C@H]2[C@@H]([C@H]1C(=O)NN(C[C@@H]1CCCNC1=O)C(=O)[C@H](F)Cl)C2(C)C [Example 169a] and print it. 7.70

Output pIC50 of CC[C@@H](C)[C@H](NC(=O)[C@@H](C)F)C(=O)N1C[C@H]2[C@@H]([C@H]1C(=O)NN(C[C@@H]1CCNC1=O)C(=O)[C@H](F)Cl)C2(C)C 7.74

Supply measured pIC50 of CC(C)(C)[C@H](Nc1ncncc1F)C(=O)N1C[C@@H]2CCC[C@@H]2[C@H]1C(=O)NN(C[C@@H]1CCNC1=O)C(=O)[C@H](F)Cl in your reply. 7.80

Read off the recorded pIC50 for CC[C@H](C)[C@H](NC(=O)C(F)F)C(=O)N1C[C@H]2[C@@H]([C@H]1C(=O)NN(C[C@@H]1CCNC1=O)C(=O)[C@H](F)Cl)C2(C)C 8.00

State, in one line, measured pIC50 of CC[C@H](C)[C@H](NC(=O)[C@H](F)Cl)C(=O)N1C[C@@H]2CCC[C@@H]2[C@H]1C(=O)NN(C[C@@H]1CCCNC1=O)C(=O)[C@H](F)Cl 7.96

Determine its reported pIC50: CCC(C)(C)[C@H](NC(=O)C(C)F)C(=O)N1C[C@H]2[C@@H]([C@H]1C(=O)NN(C[C@@H]1CCNC1=O)C(=O)[C@@H](F)Cl)C2(C)C (mixture of isomers) 7.64

Quote pIC50 reported for CC(C)(C)[C@H](NC(=O)C(F)(F)C(F)(F)F)C(=O)N1C[C@H]2[C@@H]([C@H]1C(=O)NN(C[C@@H]1CCNC1=O)C(=O)[C@H](F)Cl)C2(C)C please. 7.51

Complete the entry with pIC50 for CCC(C)(C)[C@H](NC(=O)C1(F)CC1)C(=O)N1C[C@H]2[C@@H]([C@H]1C(=O)NN(C[C@@H]1CCNC1=O)C(=O)[C@H](F)Cl)C2(C)C 7.89

Output pIC50 of CC[C@H](NC(=O)C(F)(F)F)C(=O)N1C[C@@H]2CCC[C@@H]2[C@H]1C(=O)NN(C[C@@H]1CCNC1=O)C(=O)[C@H](F)Cl 7.96
